assayed_system: T1, recombinant biotinylated monomeric Fc fusion of cynomolgus Folate Receptor 1 (cy FolR1 ECD-AcTev-Fcknob-Avi … (cynomolgus, UniProt P0DOX5 223-449 = IgG part, biotin on the C-terminal Avi tag))
T1 construct: also called cyFolR1-Fc; cyno FolR1
method_summary: SPR ProteOn, Fab analyte on immobilized antigen-Fc
Listing of recorded Kd by entry.
Response body: numeric value in nM, unit text excluded.

Problem: Param item = 15A1 Fab (Fab, V domains shown, bacterial Fab) VH: QVQLVQSGAEVKKPGASVKVSCKASGYTFTSYYMHWVRQAPGQGLEWMGIINPSGGSTSYAQKFQGRVTMTRDTSTSTVYMELSSLRSEDTAVYYCARNYYIGVVTFDYWGQGTLVTVSS VL: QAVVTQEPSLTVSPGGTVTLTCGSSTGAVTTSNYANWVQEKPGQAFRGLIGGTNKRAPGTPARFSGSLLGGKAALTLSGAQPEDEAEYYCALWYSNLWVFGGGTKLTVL ; retrieve measured Kd.
Result: 17.3

Problem: Param item = 21D1 Fab (Fab, V domains shown, bacterial Fab) VH: QVQLVQSGAEVKKPGASVKVSCKASGYTFTSYYMHWVRQAPGQGLEWMGIINPSGGSTSYAQKFQGRVTMTRDTSTSTVYMELSSLRSEDTAVYYCARNYYVGVSPFDYWGQGTLVTVSS VL: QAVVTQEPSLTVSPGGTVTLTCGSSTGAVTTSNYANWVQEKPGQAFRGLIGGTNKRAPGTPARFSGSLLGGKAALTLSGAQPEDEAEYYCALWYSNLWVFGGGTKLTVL ; retrieve measured Kd.
Result: 32.1

Problem: Param item = 16F12 Fab (Fab, V domains shown, bacterial Fab) VH: QVQLVQSGAEVKKPGASVKVSCKASGYTFTSYYMHWVRQAPGQGLEWMGIINPSGGSTSYAQKFQGRVTMTRDTSTSTVYMELSSLRSEDTAVYYCARNFTVLRVPFDYWGQGTLVTVSS VL: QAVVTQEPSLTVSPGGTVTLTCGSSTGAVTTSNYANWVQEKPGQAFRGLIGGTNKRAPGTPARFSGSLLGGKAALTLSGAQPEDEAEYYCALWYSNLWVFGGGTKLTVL ; retrieve measured Kd.
Result: 90.9
